Target: Fuc(a1-3)[Gal(b1-4)]GlcNAc(b1-4)Gal(b1-4)[Fuc(a1-3)]GlcNAc
Assay: glycan array binding signal (z-score within array); higher = stronger binding
Settings: glycan notation: IUPAC condensed, linker removed
Only a selection was taken, and the strongest signals are over-represented in it overall.
Readout: glycan array binding signal (z-score)

Binder | Readout | Data value
LKPARMA (Neurospora crassa) (protein) MSFHVTAEDARRIEVRDNRTILFARLRREDGEWNDASYELDQIIGNNDGHFQWGGGQNFTETAEDIRFHPKEGAAEQPILRARLRDCNGEFHDRDVNLTEIVENVNGEFQAKF | glycan array binding signal (z-score) | -0.077
Mindin (Homo sapiens), Q9BUD6 (protein) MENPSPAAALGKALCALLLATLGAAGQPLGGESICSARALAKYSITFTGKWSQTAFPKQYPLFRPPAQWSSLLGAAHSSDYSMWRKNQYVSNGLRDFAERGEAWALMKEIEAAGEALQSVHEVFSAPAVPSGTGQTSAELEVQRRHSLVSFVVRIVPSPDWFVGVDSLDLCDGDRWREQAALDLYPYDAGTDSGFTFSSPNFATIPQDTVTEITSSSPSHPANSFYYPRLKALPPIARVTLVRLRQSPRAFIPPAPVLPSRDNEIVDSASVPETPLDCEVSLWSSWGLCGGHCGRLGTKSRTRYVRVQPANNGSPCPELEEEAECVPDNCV | glycan array binding signal (z-score) | -0.142
Onconase (Rana pipiens), P22069 (protein) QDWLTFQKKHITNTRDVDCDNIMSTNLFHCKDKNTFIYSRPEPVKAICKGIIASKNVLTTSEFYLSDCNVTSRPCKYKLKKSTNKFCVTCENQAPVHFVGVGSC | glycan array binding signal (z-score) | 1.21
Codakine (Codakia orbicularis), Q3KVL7_9BIVA (protein) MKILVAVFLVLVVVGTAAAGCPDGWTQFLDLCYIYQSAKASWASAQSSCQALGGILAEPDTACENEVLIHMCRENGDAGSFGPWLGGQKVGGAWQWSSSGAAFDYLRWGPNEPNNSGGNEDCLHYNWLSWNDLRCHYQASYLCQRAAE | glycan array binding signal (z-score) | -0.321
DCIR (Homo sapiens), Q9UMR7 (protein) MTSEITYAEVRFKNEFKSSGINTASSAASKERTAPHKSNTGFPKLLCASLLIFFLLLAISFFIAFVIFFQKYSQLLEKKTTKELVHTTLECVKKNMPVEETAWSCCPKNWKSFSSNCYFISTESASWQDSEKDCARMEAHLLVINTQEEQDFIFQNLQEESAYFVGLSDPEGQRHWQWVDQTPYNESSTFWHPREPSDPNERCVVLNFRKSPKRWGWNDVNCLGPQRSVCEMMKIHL | glycan array binding signal (z-score) | 0.076
CREG (Mus musculus), O88668 (protein) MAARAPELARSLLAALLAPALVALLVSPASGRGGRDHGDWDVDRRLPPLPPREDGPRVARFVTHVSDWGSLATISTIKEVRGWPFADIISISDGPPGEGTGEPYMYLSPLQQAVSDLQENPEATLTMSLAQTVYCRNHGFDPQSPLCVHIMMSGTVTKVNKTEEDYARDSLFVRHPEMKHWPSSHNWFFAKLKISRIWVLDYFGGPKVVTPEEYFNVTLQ | glycan array binding signal (z-score) | 2.95
Tim-4 (Mus musculus), Q6U7R4 (protein) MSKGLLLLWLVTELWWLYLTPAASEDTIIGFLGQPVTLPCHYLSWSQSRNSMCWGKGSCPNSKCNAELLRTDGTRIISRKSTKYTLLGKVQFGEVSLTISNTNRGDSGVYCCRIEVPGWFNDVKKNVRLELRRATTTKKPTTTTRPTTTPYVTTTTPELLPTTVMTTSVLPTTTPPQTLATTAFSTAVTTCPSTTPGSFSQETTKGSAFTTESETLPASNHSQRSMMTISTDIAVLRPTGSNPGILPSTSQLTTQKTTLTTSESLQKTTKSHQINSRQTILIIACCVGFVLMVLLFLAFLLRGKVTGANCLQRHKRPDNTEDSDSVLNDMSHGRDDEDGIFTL | glycan array binding signal (z-score) | -0.188
Gal 9 (Homo sapiens), O00182 (protein) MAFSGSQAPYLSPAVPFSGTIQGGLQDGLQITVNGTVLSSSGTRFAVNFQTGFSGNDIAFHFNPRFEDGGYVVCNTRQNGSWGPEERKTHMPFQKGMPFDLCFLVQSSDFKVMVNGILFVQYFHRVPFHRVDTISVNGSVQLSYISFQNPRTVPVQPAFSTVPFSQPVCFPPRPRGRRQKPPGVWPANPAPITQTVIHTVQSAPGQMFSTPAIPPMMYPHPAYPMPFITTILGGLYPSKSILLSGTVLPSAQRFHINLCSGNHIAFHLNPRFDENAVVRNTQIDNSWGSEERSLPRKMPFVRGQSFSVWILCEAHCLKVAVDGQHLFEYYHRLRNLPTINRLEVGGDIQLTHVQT | glycan array binding signal (z-score) | -0.303
HFR-1 (Triticum aestivum) (protein) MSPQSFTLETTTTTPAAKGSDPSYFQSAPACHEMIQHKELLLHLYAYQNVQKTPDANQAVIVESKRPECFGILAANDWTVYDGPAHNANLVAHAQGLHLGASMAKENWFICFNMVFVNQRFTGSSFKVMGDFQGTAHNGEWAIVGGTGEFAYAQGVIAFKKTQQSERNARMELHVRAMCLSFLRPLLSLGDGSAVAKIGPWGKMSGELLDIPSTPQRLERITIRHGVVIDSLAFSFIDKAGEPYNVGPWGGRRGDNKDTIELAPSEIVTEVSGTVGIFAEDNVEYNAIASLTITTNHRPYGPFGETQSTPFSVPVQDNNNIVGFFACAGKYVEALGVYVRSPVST | glycan array binding signal (z-score) | -0.165
Gal 7 (Homo sapiens) (protein) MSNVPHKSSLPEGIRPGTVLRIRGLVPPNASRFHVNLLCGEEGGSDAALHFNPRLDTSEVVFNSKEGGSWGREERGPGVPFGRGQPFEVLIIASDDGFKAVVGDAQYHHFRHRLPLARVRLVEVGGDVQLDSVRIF | glycan array binding signal (z-score) | -0.214
